biological target: HLA-DRB1*01:01 (Homo sapiens, UniProt P01903+P01911, A100R/D57E/F55L/F60I/F76Y/I96L/L162R/M171V/P40L/Q125E/R42F/V115G/Y59C); construct: EBV transformed homozygous cell lines were used as sources of MHC molecules; endogenous in cells; host or cells: EBV transformed homozygous cell lines; assay: HLA class II peptide binding, inhibition of radiolabeled peptide binding to purified MHC; conditions: citrullinated 15-mer peptide (X = citrulline); purified HLA-DRB1*01:01; read-out: DRB1*01:01 binding capacity, Cit peptide (IC50 nM)
Square brackets hold non-standard residues; d marks the D form. Peptide text beside a SMILES is read from it. Cit = NC(=O)NCCC[C@H](N)C(=O)O
outcomeMeasure: log10 IC50 (log10 of the value in nM)
// units: nM (pre-log); metric: IC50; scale: log10

// returns reported log10 IC50 for input CC[C@H](C)[C@H](NC(=O)[C@@H](NC(=O)[C@H](CCC(N)=O)NC(=O)CNC(=O)[C@H](CC(=O)O)NC(=O)[C@H](CCCNC(N)=O)NC(=O)[C@@H](NC(=O)[C@H](CCC(=O)O)NC(=O)[C@@H](NC(=O)[C@@H](NC(=O)[C@H](CCCCN)NC(=O)[C@@H](NC(=O)[C@H](CC(C)C)NC(=O)[C@H](CC(C)C)NC(=O)[C@@H](N)[C@@H](C)O)[C@@H](C)CC)[C@@H](C)O)C(C)C)[C@@H](C)O)C(C)C)C(=O)O [TLLIKTVETXDGQVI] (H-TLLIKTVET[Cit]DGQVI-OH)
3.33

// returns reported log10 IC50 for input CSCC[C@H](NC(=O)[C@@H](NC(=O)CNC(=O)[C@@H]1CCCN1C(=O)[C@H](CCC(N)=O)NC(=O)CNC(=O)[C@@H](N)CCCNC(N)=O)C(C)C)C(=O)NCC(=O)N[C@@H](Cc1ccccc1)C(=O)N1CCC[C@H]1C(=O)NCC(=O)N1CCC[C@H]1C(=O)N[C@@H](CCCCN)C(=O)NCC(=O)N[C@@H](C)C(=O)O [XGQPGVMGFPGPKGA] (H-[Cit]GQPGVMGFPGPKGA-OH)
2.69

// returns reported log10 IC50 for input CC[C@H](C)[C@H](NC(=O)[C@H](CC(C)C)NC(=O)[C@H](CC(C)C)NC(=O)[C@@H](NC(=O)[C@H](CCCNC(=N)N)NC(=O)[C@H](CCCCN)NC(=O)[C@H](CO)NC(=O)[C@H](Cc1c[nH]cn1)NC(=O)[C@@H](N)[C@@H](C)O)[C@@H](C)O)C(=O)N[C@@H](CCCCN)C(=O)N[C@H](C(=O)N[C@H](C(=O)N[C@@H](CCC(=O)O)C(=O)N[C@H](C(=O)N[C@@H](CCCNC(N)=O)C(=O)O)[C@@H](C)O)C(C)C)[C@@H](C)O [THSKRTLLIKTVETX] (H-THSKRTLLIKTVET[Cit]-OH)
2.49

// returns reported log10 IC50 for input CC[C@H](C)[C@H](NC(=O)CNC(=O)[C@H](C)NC(=O)[C@H](C)NC(=O)CNC(=O)[C@H](CCCNC(N)=O)NC(=O)[C@H](CCC(=O)O)NC(=O)CNC(=O)[C@@H]1CCCN1C(=O)[C@H](CCSC)NC(=O)CNC(=O)[C@H](CCC(N)=O)NC(=O)[C@H](CC(C)C)NC(=O)CNC(=O)[C@@H]1CCCN1)C(=O)O [PGLQGMPGEXGAAGI] (H-PGLQGMPGE[Cit]GAAGI-OH)
1.74

// returns reported log10 IC50 for input CSCC[C@H](N)C(=O)N[C@@H](C)C(=O)N[C@@H](CCCNC(N)=O)C(=O)N[C@@H](Cc1c[nH]cn1)C(=O)N[C@@H](CC(C)C)C(=O)N[C@@H](CCCNC(=N)N)C(=O)N[C@@H](CCC(=O)O)C(=O)N[C@@H](Cc1ccc(O)cc1)C(=O)N[C@@H](CCC(N)=O)C(=O)N[C@@H](CC(=O)O)C(=O)N[C@@H](CC(C)C)C(=O)N[C@@H](CC(C)C)C(=O)N[C@@H](CC(N)=O)C(=O)N[C@H](C(=O)N[C@@H](CCCCN)C(=O)O)C(C)C [MAXHLREYQDLLNVK] (H-MA[Cit]HLREYQDLLNVK-OH)
2.69

// returns reported log10 IC50 for input CC(C)C[C@H](NC(=O)CNC(=O)[C@@H](N)CC(=O)O)C(=O)N[C@@H](C)C(=O)NCC(=O)N1CCC[C@H]1C(=O)N[C@@H](CCCCN)C(=O)NCC(=O)N[C@@H](C)C(=O)N1CCC[C@H]1C(=O)NCC(=O)N[C@@H](CCC(=O)O)C(=O)N[C@@H](CCCNC(N)=O)C(=O)NCC(=O)N1CCC[C@H]1C(=O)O [DGLAGPKGAPGEXGP] (H-DGLAGPKGAPGE[Cit]GP-OH)
3.05

// returns reported log10 IC50 for input CC(C)C[C@H](NC(=O)CNC(=O)[C@H](CCCNC(N)=O)NC(=O)[C@@H]1CCCN1C(=O)CNC(=O)[C@@H](N)CCC(N)=O)C(=O)N1CCC[C@H]1C(=O)NCC(=O)N[C@H](C(=O)N1CCC[C@H]1C(=O)NCC(=O)N[C@H](C(=O)N[C@@H](CC(=O)O)C(=O)NCC(=O)N1CCC[C@H]1C(=O)O)[C@@H](C)O)[C@@H](C)O [QGPXGLPGTPGTDGP] (H-QGP[Cit]GLPGTPGTDGP-OH)
4.32

// returns reported log10 IC50 for input CSCC[C@H](NC(=O)[C@@H](NC(=O)CNC(=O)[C@@H]1CCCN1C(=O)[C@H](CCC(N)=O)NC(=O)CNC(=O)[C@H](CCCNC(N)=O)NC(=O)[C@H](C)NC(=O)CNC(=O)[C@H](CCC(N)=O)NC(=O)[C@@H]1CCCN1C(=O)CN)C(C)C)C(=O)NCC(=O)N[C@@H](Cc1ccccc1)C(=O)N1CCC[C@H]1C(=O)O [GPQGAXGQPGVMGFP] (H-GPQGA[Cit]GQPGVMGFP-OH)
1.81

// returns reported log10 IC50 for input C[C@H](NC(=O)CNC(=O)[C@@H]1CCCN1C(=O)[C@@H]1CCCN1C(=O)CNC(=O)[C@H](CCC(N)=O)NC(=O)[C@H](C)NC(=O)CNC(=O)[C@H](CCCNC(N)=O)NC(=O)[C@H](C)NC(=O)CNC(=O)[C@H](CCCCN)NC(=O)[C@@H]1CCCN1C(=O)CNC(=O)[C@@H](N)[C@@H](C)O)C(=O)O [TGPKGAXGAQGPPGA] (H-TGPKGA[Cit]GAQGPPGA-OH)
3.43

// returns reported log10 IC50 for input C[C@H](NC(=O)CNC(=O)[C@H](C)NC(=O)[C@@H]1CCCN1C(=O)CNC(=O)[C@@H](NC(=O)[C@H](CCCNC(N)=O)NC(=O)CNC(=O)[C@H](CCCNC(=N)N)NC(=O)[C@@H](N)CCC(=O)O)[C@@H](C)O)C(=O)N[C@@H](C)C(=O)NCC(=O)N[C@@H](C)C(=O)N[C@@H](CCCNC(=N)N)C(=O)NCC(=O)O [ERGXTGPAGAAGARG] (H-ERG[Cit]TGPAGAAGARG-OH)
3.59
